src = ChEMBL document CHEMBL1201861

# Test system: G-401
# EXPERIMENT_DESCRIPTION: cells
# Format: functional, cell-based, Homo sapiens
# CONDITION_PARAMETERS: Homo sapiens, G-401
# Description: SANGER: Inhibition of human G-401 cell growth in a cell viability assay.
VALUE_TYPE: IC50

Data point: CC(=O)O[C@@]12CO[C@@H]1C[C@H](O)[C@@]1(C)C(=O)[C@H](O)C3=C(C)[C@@H](OC(=O)[C@H](O)[C@@H](NC(=O)OC(C)(C)C)c4ccccc4)C[C@@](O)([C@@H](OC(=O)c4ccccc4)[C@H]21)C3(C)C [DOCETAXEL] ; IC50 = 0.00127 µM

The compound listed as "CC(=O)O[C@@H]1[C@@H](OC(C)=O)[C@@H](O)[C@H](Oc2c(-c3ccc(O)cc3)oc3cc(O)cc(O)c3c2=O)O[C@H]1C" has a reported IC50 of > 10 µM

What the record says about "COC(=O)CNC(=O)C(=O)OC" : IC50 is 1460 µM

Lookup result for Nc1ccn([C@@H]2O[C@H](CO)[C@@H](O)[C@@H]2O)c(=O)n1 [CYTARABINE] ; measured IC50: 0.758 µM

get_value(item= Cc1cnc(-c2cnc(NCCNc3ccc(C#N)cn3)nc2-c2ccc(Cl)cc2Cl)[nH]1 [LADUVIGLUSIB] , readout=IC50) returns > 2.56 µM

###

Each item that follows carries a reported IC50.
# Test system: HSC-3
# EXPERIMENT_DESCRIPTION: cells
# Assay type: functional, cell-based, Homo sapiens
# CONDITION_PARAMETERS: Homo sapiens, HSC-3
# Description: SANGER: Inhibition of human HSC-3 cell growth in a cell viability assay.
Entry rule: numbers only, all in nM.

COMPOUND	TESTED_SYSTEM	IC50, nM
CCC1=C[C@@H]2CN(C1)Cc1c([nH]c3ccccc13)[C@@](C(=O)OC)(c1cc3c(cc1OC)N(C)[C@H]1[C@@](O)(C(=O)OC)[C@H](OC(C)=O)[C@]4(CC)C=CCN5CC[C@]31[C@@H]54)C2 [VINORELBINE]	HSC-3	5.62

Consider the record given below.
Record Cn1cncc1[C@@](N)(c1ccc(Cl)cc1)c1ccc2c(c1)c(-c1cccc(Cl)c1)cc(=O)n2C [TIPIFARNIB] , field IC50: 2630

###

# Test system: CAL-120;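 note: cell growth inhibition, read out as cell viability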
# EXPERIMENT_DESCRIPTION: cells
# Format: functional, cell-based, Homo sapiens
# CONDITION_PARAMETERS: Homo sapiens, CAL-120
# Description: SANGER: Inhibition of human CAL-120 cell growth in a cell viability assay.
VALUE_TYPE: IC50

Some solved entries appear below for comparison.
GIVEN_SMILES	RESULT_VALUE
O=C(NOCC1CC1)c1ccc(F)c(F)c1Nc1ccc(I)cc1Cl	> 10 µM
O=C(c1cc(Cc2n[nH]c(=O)c3ccccc23)ccc1F)N1CCN(C(=O)C2CC2)CC1	> 5 µM
C[C@]1(O)C[C@@H](c2nc(-c3ccc4ccc(-c5ccccc5)nc4c3)c3c(N)nccn32)C1	> 2.56 µM
Cn1cncc1[C@@](N)(c1ccc(Cl)cc1)c1ccc2c(c1)c(-c1cccc(Cl)c1)cc(=O)n2C	> 16 µM
CN(C)C/C=C/C(=O)Nc1cc2c(Nc3ccc(F)c(Cl)c3)ncnc2cc1O[C@H]1CCOC1	> 0.5 µM

Per the records, this molecule ( "COc1ccc(-c2ccc3c(N4CCOC[C@@H]4C)nc(N4CCOC[C@@H]4C)nc3n2)cc1CO" ) has IC50 equal to 0.86 µM

# molecule "CC(=O)O[C@@H]1[C@@H](OC(C)=O)[C@@H](O)[C@H](Oc2c(-c3ccc(O)cc3)oc3cc(O)cc(O)c3c2=O)O[C@H]1C" ; its IC50 = > 10 µM

###

# Tested on: SCLC-21H;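 note: growth inhibition of cultured human SCLC-21H cells, read out with a cell viability assay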
# EXPERIMENT_DESCRIPTION: cells
# Format: functional, cell-based
# CONDITION_PARAMETERS: Homo sapiens
# Description: SANGER: Inhibition of human SCLC-21H cell growth in a cell viability assay.
pIC50: −log10 of the molar value.
In this section we review reported pIC50 values for a set of compounds.

GIVEN_SMILES	TESTED_SYSTEM	pIC50
CN(c1ncccc1CNc1nc(Nc2ccc3c(c2)CC(=O)N3)ncc1C(F)(F)F)S(C)(=O)=O	SCLC-21H	< 5.59

pIC50 reported for this compound "C=CCc1cccc(/C=N/NC(=O)CN2CCN(Cc3ccccc3)CC2)c1O" : < 5.59

pIC50 recorded for this compound, "CN1CCN(CCOc2cc(OC3CCOCC3)c3c(Nc4c(Cl)ccc5c4OCO5)ncnc3c2)CC1" , is < 5.70

###

# Tested on: ES3
# EXPERIMENT_DESCRIPTION: cells
# Format: functional, cell-based, Homo sapiens
# CONDITION_PARAMETERS: es3
# Description: SANGER: Inhibition of human ES3 cell growth in a cell viability assay.
pIC50: −log10 of the molar value.
VALUE_TYPE: pIC50

Sample "Cc1cc([C@@H](C)Nc2ccccc2C(=O)O)c2nc(N3CCOCC3)cc(=O)n2c1" ; pIC50 observed: < 5.29

###

# Test system: C3A;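 note: growth inhibition of C3A human cells, quantified with a cell viability readout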
# EXPERIMENT_DESCRIPTION: cells
# Assay type: functional, cell-based, Homo sapiens
# CONDITION_PARAMETERS: Homo sapiens, C3A
# Description: SANGER: Inhibition of human C3A cell growth in a cell viability assay.
Items are presented alongside their recorded IC50.

Recorded results for 2 molecules are shown here.
GIVEN_SMILES	IC50
Nc1ccn([C@@H]2O[C@H](CO)[C@@H](O)[C@@H]2O)c(=O)n1	> 2 µM
CCOc1nc(NC(=O)Cc2cc(OC)ccc2OC)cc(N)c1C#N	> 10 µM

Measured IC50 of "Cn1cc(C2=C(c3ccc(Cl)cc3Cl)C(=O)NC2=O)c2ccccc21" : > 10 µM

// IC50 value for "COc1ccc(C2=N[C@@H](c3ccc(Cl)cc3)[C@@H](c3ccc(Cl)cc3)N2C(=O)N2CCNC(=O)C2)c(OC(C)C)c1" : > 8 µM

Noted for "C=CCNC1=C2C[C@@H](C)C[C@H](OC)[C@H](O)[C@@H](C)/C=C(\C)[C@H](OC(N)=O)[C@@H](OC)/C=C\C=C(/C)C(=O)NC(=CC1=O)C2=O" : its IC50 reads 0.454 µM

Looking up "O=c1cc(-c2cccc3c2Sc2ccccc2S3)oc(N2CCOCC2)c1" , I see its IC50 listed as > 10 µM

###

// pIC50 lookup, one value per entry
# Tested on: LS-1034
# EXPERIMENT_DESCRIPTION: cells
# Type: functional, cell-based, Homo sapiens
# CONDITION_PARAMETERS: Homo sapiens, LS-1034
# Description: SANGER: Inhibition of human LS-1034 cell growth in a cell viability assay.
pIC50: −log10 of the molar value.

Known pIC50 results, listed for orientation:
COMPOUND	pIC50
O=C1N=C(NCc2cccs2)S/C1=C\c1ccc2ncccc2c1	< 5.30
COc1ccc(-c2ccc3c(N4CCOC[C@@H]4C)nc(N4CCOC[C@@H]4C)nc3n2)cc1CO [AZD-8055]	< 5.70
COc1cc([C@@H]2c3cc4c(cc3[C@@H](O[C@@H]3O[C@@H]5CO[C@@H](C)O[C@H]5[C@H](O)[C@H]3O)[C@H]3COC(=O)[C@H]23)OCO4)cc(OC)c1O [ETOPOSIDE]	< 4.80
COC(=O)CNC(=O)C(=O)OC	2.59
CCc1nc(N)nc(N)c1-c1ccc(Cl)cc1 [PYRIMETHAMINE]	4.74
Cn1cc(C2=C(c3ccc(Cl)cc3Cl)C(=O)NC2=O)c2ccccc21 [SB-216763]	< 5.00
CC(=O)O[C@@H]1[C@@H](OC(C)=O)[C@@H](O)[C@H](Oc2c(-c3ccc(O)cc3)oc3cc(O)cc(O)c3c2=O)O[C@H]1C	< 5.00
COc1cc(F)c(F)c(Nc2ccc(I)cc2F)c1NS(=O)(=O)C1(CC(O)CO)CC1 (centres undefined)	5.79

// moving on: another record for pIC50
Record CNC(=O)c1cc(Oc2ccc(NC(=O)Nc3ccc(Cl)c(C(F)(F)F)c3)cc2)ccn1 [SORAFENIB] , field pIC50: < 5.40

###

# Tested on: GOTO;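 note: growth inhibition of GOTO cells, read out by a cell viability assay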
# EXPERIMENT_DESCRIPTION: cells
# Assay type: functional, cell-based, Homo sapiens
# CONDITION_PARAMETERS: Homo sapiens, GOTO
# Description: SANGER: Inhibition of human GOTO cell growth in a cell viability assay.
# pIC50 listing for each entry below
Kindly note that pIC50 refers to -log10 of the concentration in mol/L and answer with the value alone.

GIVEN_SMILES	VALUE_TYPE	RESULT_VALUE
COc1ccc(C2=N[C@@H](c3ccc(Cl)cc3)[C@@H](c3ccc(Cl)cc3)N2C(=O)N2CCNC(=O)C2)c(OC(C)C)c1	pIC50	5.42

Reported pIC50 for "COC(=O)CNC(=O)C(=O)OC" was 2.94

###

# System: NCI-H358
# EXPERIMENT_DESCRIPTION: cells
# Format: functional, cell-based, Homo sapiens
# CONDITION_PARAMETERS: Homo sapiens, NCI-H358
# Description: SANGER: Inhibition of human NCI-H358 cell growth in a cell viability assay.
VALUE_TYPE: IC50

Worked cases, IC50 given:
COMPOUND	IC50
O=C(c1cc(Cc2n[nH]c(=O)c3ccccc23)ccc1F)N1CCN(C(=O)C2CC2)CC1	> 5000 nM
Cc1ccc(Nc2nccc(N(C)c3ccc4c(C)n(C)nc4c3)n2)cc1S(N)(=O)=O	> 8000 nM
O=C(NOCC1CC1)c1ccc(F)c(F)c1Nc1ccc(I)cc1Cl	4450 nM
CCC1=C[C@@H]2CN(C1)Cc1c([nH]c3ccccc13)[C@@](C(=O)OC)(c1cc3c(cc1OC)N(C)[C@H]1[C@@](O)(C(=O)OC)[C@H](OC(C)=O)[C@]4(CC)C=CCN5CC[C@]31[C@@H]54)C2	5.89 nM
CN(C)C/C=C/C(=O)Nc1cc2c(Nc3ccc(F)c(Cl)c3)ncnc2cc1O[C@H]1CCOC1	> 500 nM
CN(Cc1cnc2nc(N)nc(N)c2n1)c1ccc(C(=O)N[C@@H](CCC(=O)O)C(=O)O)cc1 [METHOTREXATE]	> 200 nM
CCOc1nc(NC(=O)Cc2cc(OC)ccc2OC)cc(N)c1C#N	> 10000 nM
O=c1cc(-c2cccc3c2Sc2ccccc2S3)oc(N2CCOCC2)c1	> 10000 nM
CN(c1ncccc1CNc1nc(Nc2ccc3c(c2)CC(=O)N3)ncc1C(F)(F)F)S(C)(=O)=O	> 2560 nM

Let us examine a further case.
Test item "C[C@]1(O)C[C@@H](c2nc(-c3ccc4ccc(-c5ccccc5)nc4c3)c3c(N)nccn32)C1" ; NCI-H358; reported IC50 was 671 nM
